molecular target: UniProt:P42336; test: PI3K-alpha fluorescence polarization assay; details: read-out: IC50 PI3Kα; listed as 734
value.type: pIC50
Bear in mind: pIC50 is minus log10 of a mol/L concentration; give just that figure.

Query :: Report pIC50 for CN1CCN(CCCc2nc(-c3ccc(NC(=O)Nc4ccncc4)cc3)nc(N3CCOCC3)n2)CC1 please.
Result :: 7.59

====

Field: IC50. Provide a value for each of the molecules that follow.
biological target: PI3K-α (Homo sapiens); experiment: PI3K-alpha fluorescence polarization assay; conditions: read-out: IC50 PI3Kα
Sequence (P42336 whole entry, species assumed): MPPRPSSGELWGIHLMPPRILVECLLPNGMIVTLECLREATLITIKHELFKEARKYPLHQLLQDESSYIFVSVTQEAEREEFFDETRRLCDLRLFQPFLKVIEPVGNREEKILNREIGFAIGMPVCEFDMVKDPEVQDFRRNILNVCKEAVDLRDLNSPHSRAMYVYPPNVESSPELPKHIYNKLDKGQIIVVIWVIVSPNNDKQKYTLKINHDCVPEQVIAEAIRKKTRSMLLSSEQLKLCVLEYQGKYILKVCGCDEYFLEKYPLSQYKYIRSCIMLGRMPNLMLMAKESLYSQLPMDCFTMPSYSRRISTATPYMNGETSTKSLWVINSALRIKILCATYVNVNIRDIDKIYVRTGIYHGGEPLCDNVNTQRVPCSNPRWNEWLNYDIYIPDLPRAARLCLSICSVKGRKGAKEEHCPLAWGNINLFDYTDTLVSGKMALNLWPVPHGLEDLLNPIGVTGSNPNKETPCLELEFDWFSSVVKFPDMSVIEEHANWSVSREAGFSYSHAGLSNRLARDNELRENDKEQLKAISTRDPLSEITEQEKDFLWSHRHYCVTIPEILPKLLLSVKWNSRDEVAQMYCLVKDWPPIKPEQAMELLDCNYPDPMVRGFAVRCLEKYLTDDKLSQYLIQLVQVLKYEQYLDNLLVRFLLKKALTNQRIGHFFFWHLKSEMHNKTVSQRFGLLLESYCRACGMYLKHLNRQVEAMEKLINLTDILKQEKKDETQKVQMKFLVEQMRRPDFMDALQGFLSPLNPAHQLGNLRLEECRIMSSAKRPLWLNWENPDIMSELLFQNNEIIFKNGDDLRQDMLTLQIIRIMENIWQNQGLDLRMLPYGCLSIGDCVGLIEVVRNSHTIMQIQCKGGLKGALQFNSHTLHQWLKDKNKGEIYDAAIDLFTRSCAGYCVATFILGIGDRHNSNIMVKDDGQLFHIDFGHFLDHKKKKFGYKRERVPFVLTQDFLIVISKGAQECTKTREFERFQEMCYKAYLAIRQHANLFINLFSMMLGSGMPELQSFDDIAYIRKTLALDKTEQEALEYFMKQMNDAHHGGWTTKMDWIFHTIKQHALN
Sequence (P27986 whole entry partner, species assumed): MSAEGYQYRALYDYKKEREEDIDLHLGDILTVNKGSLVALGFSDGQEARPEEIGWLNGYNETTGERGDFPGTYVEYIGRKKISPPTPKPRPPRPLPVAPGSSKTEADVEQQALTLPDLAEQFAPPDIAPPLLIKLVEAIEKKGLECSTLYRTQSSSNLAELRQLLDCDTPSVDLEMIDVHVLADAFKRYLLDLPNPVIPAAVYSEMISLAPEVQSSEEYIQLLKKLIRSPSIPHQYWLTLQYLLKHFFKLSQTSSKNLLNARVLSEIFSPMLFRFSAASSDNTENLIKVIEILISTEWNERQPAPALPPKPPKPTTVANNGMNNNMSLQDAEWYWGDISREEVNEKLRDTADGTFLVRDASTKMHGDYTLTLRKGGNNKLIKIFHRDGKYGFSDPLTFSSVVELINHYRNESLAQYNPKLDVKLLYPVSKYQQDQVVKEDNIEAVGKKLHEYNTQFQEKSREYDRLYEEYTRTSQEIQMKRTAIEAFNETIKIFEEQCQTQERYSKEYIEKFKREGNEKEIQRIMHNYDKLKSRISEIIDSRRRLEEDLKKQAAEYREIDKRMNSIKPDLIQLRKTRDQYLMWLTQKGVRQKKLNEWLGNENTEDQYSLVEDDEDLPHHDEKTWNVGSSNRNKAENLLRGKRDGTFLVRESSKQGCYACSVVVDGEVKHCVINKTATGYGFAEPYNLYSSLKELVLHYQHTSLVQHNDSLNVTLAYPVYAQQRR
A number alone suffices; assume nM.

Query :: Report IC50 for CCCCc1nc(-c2ccc(NC(=O)Nc3ccc(C(=O)N4CCC(Cc5ccccc5)CC4)cc3)cc2)nc(N2CCOCC2)n1 [Example 270] please.
Result :: 68

Query :: Report IC50 for O=C(Nc1ccc(CO)cc1)Nc1ccc(-c2nc(N3CCOCC3)nc(N3CCOCC3)n2)cc1 [Example 51] please.
Result :: 1

Query :: Report IC50 for Cc1nc(-c2ccc(NC(=O)Nc3ccc(C(=O)N(C)CCN(C)C)cc3)cc2)nc(N2CCOCC2)n1 [Example 165] please.
Result :: 9

Query :: Report IC50 for CC(C)N1CCN(C(=O)c2ccc(NC(=O)Nc3ccc(-c4nc(N5CCOCC5)nc(N5C6COCC5COC6)n4)cc3)cc2)CC1 [Example 773] please.
Result :: 3

Query :: Report IC50 for COc1nc(-c2ccc(NC(=O)Nc3ccc(C(=O)NCCN4CCCCC4)cc3)cc2)nc(N2CCOCC2)n1 [Example 248] please.
Result :: 2

Query :: Report IC50 for CCc1nc(-c2ccc(NC(=O)Nc3ccc(N4CCN(C)CC4)cc3)cc2)nc(N2CCOCC2)n1 [Example 296] please.
Result :: 13

Query :: Report IC50 for CN(C)CCN(C)C(=O)c1ccc(NC(=O)Nc2ccc(-c3nc(-c4ccccc4)nc(N4CCOCC4)n3)cc2)cc1 [Example 539] please.
Result :: 1.1
